system: NEK7 (Homo sapiens (Human), UniProt Q8TDX7+Q96SW2)
Sequence (Q8TDX7 whole entry): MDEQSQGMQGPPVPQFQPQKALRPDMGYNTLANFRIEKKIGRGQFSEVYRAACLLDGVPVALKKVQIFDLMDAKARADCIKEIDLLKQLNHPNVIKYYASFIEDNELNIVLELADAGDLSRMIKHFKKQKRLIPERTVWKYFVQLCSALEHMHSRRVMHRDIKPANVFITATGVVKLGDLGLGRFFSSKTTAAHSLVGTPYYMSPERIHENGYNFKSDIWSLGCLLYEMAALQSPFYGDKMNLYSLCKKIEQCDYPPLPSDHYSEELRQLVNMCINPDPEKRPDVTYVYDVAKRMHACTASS
Sequence (Q96SW2 whole entry): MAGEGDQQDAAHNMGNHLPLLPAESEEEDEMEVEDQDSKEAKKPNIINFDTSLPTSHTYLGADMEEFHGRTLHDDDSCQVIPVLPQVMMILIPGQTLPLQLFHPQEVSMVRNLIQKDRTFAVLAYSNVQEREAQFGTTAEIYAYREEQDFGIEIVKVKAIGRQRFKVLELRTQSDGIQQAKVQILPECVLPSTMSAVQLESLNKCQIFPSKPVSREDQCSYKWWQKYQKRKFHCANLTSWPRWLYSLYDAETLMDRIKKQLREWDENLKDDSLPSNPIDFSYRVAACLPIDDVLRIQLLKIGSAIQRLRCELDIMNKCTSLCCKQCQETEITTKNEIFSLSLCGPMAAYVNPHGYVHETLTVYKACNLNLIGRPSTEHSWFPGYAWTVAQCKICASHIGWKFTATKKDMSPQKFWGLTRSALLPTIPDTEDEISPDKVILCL
Sequence (Q16531 2-1140 partner): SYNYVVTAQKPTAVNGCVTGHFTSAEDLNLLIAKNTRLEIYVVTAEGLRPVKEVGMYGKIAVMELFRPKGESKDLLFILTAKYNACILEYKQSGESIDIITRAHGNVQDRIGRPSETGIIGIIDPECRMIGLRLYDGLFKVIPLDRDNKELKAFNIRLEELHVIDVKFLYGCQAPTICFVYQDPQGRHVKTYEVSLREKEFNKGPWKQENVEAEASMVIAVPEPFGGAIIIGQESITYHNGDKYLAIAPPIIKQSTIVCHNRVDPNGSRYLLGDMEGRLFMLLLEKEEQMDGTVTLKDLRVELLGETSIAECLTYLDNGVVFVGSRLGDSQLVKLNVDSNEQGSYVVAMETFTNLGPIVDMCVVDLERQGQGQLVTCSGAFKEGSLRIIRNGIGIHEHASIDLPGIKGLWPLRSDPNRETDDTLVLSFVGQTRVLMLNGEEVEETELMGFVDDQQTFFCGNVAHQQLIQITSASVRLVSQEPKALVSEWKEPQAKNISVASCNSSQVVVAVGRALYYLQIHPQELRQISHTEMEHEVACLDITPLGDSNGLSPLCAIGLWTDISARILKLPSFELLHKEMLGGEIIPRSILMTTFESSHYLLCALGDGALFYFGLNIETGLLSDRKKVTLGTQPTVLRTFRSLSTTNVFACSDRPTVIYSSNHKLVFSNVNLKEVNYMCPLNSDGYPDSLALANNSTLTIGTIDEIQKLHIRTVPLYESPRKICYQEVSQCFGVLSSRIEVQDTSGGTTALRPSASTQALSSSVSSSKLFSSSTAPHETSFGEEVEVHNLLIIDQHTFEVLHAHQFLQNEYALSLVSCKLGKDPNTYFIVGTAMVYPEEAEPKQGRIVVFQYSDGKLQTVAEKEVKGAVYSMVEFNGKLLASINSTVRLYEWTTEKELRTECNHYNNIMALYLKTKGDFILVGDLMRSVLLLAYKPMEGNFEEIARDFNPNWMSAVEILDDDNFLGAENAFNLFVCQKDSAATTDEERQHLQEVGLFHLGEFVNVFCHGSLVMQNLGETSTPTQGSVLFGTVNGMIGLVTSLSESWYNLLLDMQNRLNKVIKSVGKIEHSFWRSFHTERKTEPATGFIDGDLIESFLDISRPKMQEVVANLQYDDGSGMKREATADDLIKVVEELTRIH
assay_details: NEK7 NanoBiT degradation assay in Cal51 NEK7 NanoBiT cell line
Format: cell-based
experimental_conditions: NEK7 degradation, Cal51 NEK7 NanoBiT cells, 24 hours; read-out: NanoBiT DC50
Method: Cal51 NEK7 NanoBiT cell line was generated via CRISPR Knock-In of the HiBiT tag in NEK7 gene and stable infection with a lentivirus carrying LgBiT protein. The cell line was generated in house. […] Cells were incubated at 37° C., 5% CO2 for 24 hours and then signal was read on a Pherastar FSX using “LUM plus” optic module with 4095 gain and measurement interval time 0.2 seconds. […]
property_measured: DC50

Solved entries:
O=C1CCC(c2c(Cl)cc(CNC(=O)C3(c4ccccc4)COC3)cc2Cl)C(=O)N1 (stereo not shown) ... ≤ 100 nM
CC(C)(C(=O)NCc1ccc(C2CCC(=O)NC2=O)c(Cl)c1)c1ccccc1 (stereo not shown) ... ≤ 100 nM
O=C1CCC(c2c(Cl)cc(CNC(=O)C3(c4ccc(F)cc4)CCOCC3)cc2Cl)C(=O)N1 (stereo not shown) ... ≤ 100 nM

Entry under review: COc1cnc(C(C)(C)C(=O)NCc2cc(F)c(C3CCC(=O)NC3=O)c(Cl)c2)nc1 (stereo not shown) . Reported DC50? ≤ 100 nM

Entry under review: CC(C)(C(=O)NCc1ccc(C2CCC(=O)NC2=O)c(Cl)c1)c1ccc(Cl)nc1 (stereo not shown) . Reported DC50? ≤ 100 nM
